conditions: 23 °C
Quick rule for you: solubility at 600 µM or higher means true, lower means false.

Use the examples below as a reference point.
INSERT INTO assay_data (compound, discrete_label) VALUES
  ('O=C1C(Cl)=C(NC(=O)C(Cl)Cl)C(=O)c2ccccc21', 'false'),
  ('O=C(O)[C@@H](CO)c1ccccc1', 'true'),
  ('NC(=O)CC(N)C(=O)O (stereo not drawn)', 'true');

Kindly determine if solubility recorded for Clc1ccccc1-c1cc(Cl)c(Cl)c(Cl)c1Cl is above or exactly 600 µM.
false

State whether the measured solubility reaches 600 µM, counting equality as reaching it, for O=c1[nH]cnc2nc[nH]c12
true

Record CCCC(C)(C)C(=O)Nc1ccc(Cl)cc1 ; criterion: solubility no lower than 600 µM. Met?
false

Does the reported solubility for Nc1ccc(C(=O)O)c(O)c1 fall at or above the 600 µM mark?
true

* * *

conditions: 25 °C
Measured endpoint: log10 solubility (log10 of the value in µM)
On a log10 scale: recorded solubility, unit µM.

// solved cases for log10 solubility follow
INSERT INTO results (molecule, result) VALUES
  ('N#CNC(=N)N', 5.69),
  ('CC(C)(C)C(=O)C1C(=O)c2ccccc2C1=O', 1.89);

Look up log10 solubility: Ic1cccc2ccccc12
1.45

Item under review: CNC(=O)ON=C(C)SC . Reported log10 solubility?
5.55

Need log10 solubility of CC1CCC(C)CC1 (stereo not drawn) , thanks.
1.53

Record request: log10 solubility value, item CCOC(=O)C(C)N(C(=O)c1ccccc1)c1ccc(Cl)c(Cl)c1 (stereo not drawn)
1.74

// log10 solubility lookup, key: ONc1ccccc1
5.41

I'd like to know its log10 solubility. The molecule in question is CCOC(=S)SSC(=S)OCC
1.06

* * *

details: 30 °C
Listed next: entries and their corresponding solubility.
Only the number, expressed in µM, is required.

INSERT INTO assay_data (structure_as_smiles, measured_endpoint, result) VALUES
  ('CN(C)CCN(Cc1ccccc1)c1ccccn1', 'solubility', 2300),
  ('Cc1cccc([N+](=O)[O-])c1', 'solubility', 3650),
  ('CN=C(O)Oc1cccc(C)c1', 'solubility', 15700),
  ('COC(=O)[C@H]1[C@H]2C[C@@H]3c4[nH]c5cc(OC)ccc5c4CCN3C[C@H]2C[C@@H](OC(=O)c2cc(OC)c(OC)c(OC)c2)[C@@H]1OC', 'solubility', 120),
  ('CCCCCCCCCCC(=O)O', 'solubility', 280);

Endpoint output: solubility of C#CC=C . Value?
34300

// solubility lookup, key: CC(C)CCC[C@@H](C)[C@H]1CC[C@H]2[C@@H]3CC=C4C[C@@H](O)CC[C@]4(C)[C@H]3CC[C@]12C
0.246

So what's the measured solubility for this one? COc1c2occc2cc2ccc(=O)oc12
220

Recorded solubility of NCCCCCCCCCCC(=O)O , please.
4970

Which measured solubility value corresponds to C=CCCCCCCCCC(=O)O ?
400

Param item = COc1ccc2ccc(=O)oc2c1CC=C(C)C ; retrieve measured solubility.
49.1

Query: solubility; subject: O=C(O)CCCCCCCCCCBr
200

Fill blank: measured solubility of the molecule CCOC(=O)C1(c2ccccc2)CCN(C)CC1 is ____.
13000

* * *

details: 25 °C
Measured endpoint: log10 of solubility (log10 of the value in mM)
Hello, just confirming the data are log10 of solubility with units of mM.

A selection of reference data follows.
INSERT INTO results (structure_as_smiles, result) VALUES
  ('COC1=CC(=O)C[C@@H](C)[C@]12Oc1c(Cl)c(OC)cc(OC)c1C2=O', -1.61),
  ('OC(c1ccccc1)(c1ccccc1)c1ccccc1', 0.74),
  ('C=Cc1ccccc1', 0.47),
  ('O=C1NC(=O)C([N+](=O)[O-])C(=O)N1', 0.72),
  ('Nc1ccc(S(=O)(=O)Nc2nccs2)cc1', 0.58);

Could you tell me which log10 of solubility is on file for O=C1C(Cl)=C(Cl)C(=O)C(Cl)=C1Cl ?
0.01

Entry under review: Cc1ccc2ccc(C)nc2c1 . Reported log10 of solubility?
1.06

Please give the measured log10 of solubility for this compound: C1OCOCO1
3.29

# input compound: c1cc2ccc3ccc4ccc5cccc6c(c1)c2c3c4c56 ; wanted: its log10 of solubility
-6.03

Recorded log10 of solubility for CCC(CC)CO , please?
1.59

Please report the recorded log10 of solubility for CC(=O)CC(C)C .
2.28

Requested read-out: log10 of solubility. Entry: C#CCC
1.73

For CC(=O)OCC(C)C , what is its reported log10 of solubility?
1.73

What value of log10 of solubility has been recorded for this entry: FC1(F)C(F)(F)C(F)(F)C1(F)F
-0.78

Quick check: log10 of solubility of CCOC(=O)C=Cc1ccccc1 ?
0.00

* * *

Recorded measurements of log10 of solubility, one per entry
details: 20 °C
On a log10 scale: recorded solubility, unit mM.

INSERT INTO measurements (molecule, result) VALUES
  ('NC[C@H](O)c1ccccc1', 2.52),
  ('O=C1C[C@@H](c2ccc(O)c(O)c2)Oc2cc(O)cc(O)c21', -0.61),
  ('C=CCOC(=O)c1ccccc1C(=O)OCC=C', -0.13),
  ('O=C(O)c1ccccc1C(c1ccc(O)cc1)c1ccc(O)cc1', -0.26),
  ('COc1ccc(C=O)c(C(=O)O)c1OC', 1.08);

We now examine a further molecule.
Reported log10 of solubility for Oc1cccnc1 : what is it?
2.54

* * *

conditions: 25 °C
Measured solubility, listed per entry.
Your answer should be a plain number; it is taken to be in mM.

Example entries and their recorded answers appear below.
INSERT INTO measurements (structure_as_smiles, measurement_unit, result) VALUES
  ('CC(=O)[C@@]1(C)CC[C@H]2[C@@H]3C=C(C)C4=CC(=O)CC[C@]4(C)[C@H]3CC[C@@]21C', 'mM', 0.00534),
  ('C=CCC1(C(C)C)C(=O)NC(=O)NC1=O', 'mM', 19.4),
  ('Cc1ccnc(C)c1', 'mM', 3020);

Find the recorded solubility belonging to O=[N+]([O-])O[C@H]1CO[C@H]2[C@@H]1OC[C@H]2O[N+](=O)[O-] and report it.
2.33

So what does the record say about solubility for O=S(=O)(Cl)c1ccc(I)cc1 ?
0.0539

* * *

details: 20 °C
Measured endpoint: solubility (µM)
All answers are understood in µM, so give the number only.

// known answers, use as guide
INSERT INTO measurements (compound, result) VALUES
  ('CCNc1nc(NC(C)(C)C)nc(OC)n1', 577),
  ('Oc1cccc2ncccc12', 2870),
  ('O=C(O)C=Cc1ccco1', 14500),
  ('Clc1ccc(Cl)c(-c2cc(Cl)c(Cl)c(Cl)c2)c1', 0.0484),
  ('Clc1ccc2c(c1)Oc1c(Cl)c(Cl)c(Cl)c(Cl)c1O2', 0.000337),
  ('O=C(O)c1nc[nH]c1C(=O)O', 3200),
  ('Clc1cccc(-c2ccccc2Cl)c1', 2.6),
  ('C=C(C(=O)O)c1ccccc1', 8770);

Suppose we examine the compound Clc1ccccc1-c1cccc(Cl)c1Cl ; what solubility value has been reported?
1.14

Fill in the blank: the reported solubility of CN=C=S is ____.
104000

Name the reported solubility value associated with the compound CCC1CCCCC1
56.1

* * *

conditions: 25 °C
Binary classification by solubility, with 3 mM as an inclusive lower bound for criterion met; all other cases are criterion not met.

INSERT INTO measurements (structure_as_smiles, discrete_label) VALUES
  ('Cc1cc(Cl)ccc1OCC(=O)O', 'criterion met'),
  ('CCCCCCCCCC', 'criterion not met'),
  ('CN(C)[C@@H]1C(O)=C(C(N)=O)C(=O)[C@@]2(O)C(O)=C3C(=O)c4c(O)cccc4[C@@](C)(O)[C@H]3[C@H](O)[C@@H]12', 'criterion not met'),
  ('Clc1cccc(-c2ccccc2)c1', 'criterion not met'),
  ('Nc1ncnc2[nH]cnc12', 'criterion met');

Is the recorded value of solubility equal to or greater than 3 mM for this molecule? CC(C)OC(C)(C)C
criterion met

Would you say CCCCCCCC=O shows solubility at minimum 3 mM?
criterion met

* * *

Reported solubility values are given for each entry in this list.
conditions: 25 °C
Numeric answer only, unit mM assumed.

Fill in: solubility of CCCC[C@@H](O)CC is ___
34.4

Request the reported solubility associated with Cc1c(C(=O)O)c(O)cc2c1C(=O)c1c(O)c([C@@H]3O[C@H](CO)[C@@H](O)[C@H](O)[C@H]3O)c(O)c(O)c1C2=O
2.64

Could you tell me which solubility is on file for COc1cc(C=O)ccc1O ?
72.3

I have this compound here, C[C@@H](O)C(N)=O , and I need its recorded solubility.
8780

So what does the record say about solubility for O=C1NCCN1c1ncc([N+](=O)[O-])s1 ?
0.607

Query: solubility; subject: CCCCCCC
0.0339

Look at this compound and give its reported solubility. C=C[C@H]1CN2CCC1C[C@@H]2[C@@H](O)c1ccnc2ccccc12 (stereo partly drawn)
0.744
